target-of-assay: GT1a D168A NS3/4A protease (UniProt P27958, D1194A, species not given)
Construct: rows headed: Ki (nM) D168A; Ki D168A; other: D168A variant
Format: biochemical, Hepatitis C virus
settings: read-out: Ki (nM) D168A; Table 8; linear inhibitors
Please go through the items and note down their Ki.
One number for each entry, in nM.

A selection of reference data follows.
INSERT INTO assay_data (molecule, reported_measurement) VALUES
  ('C=C[C@@H]1C[C@]1(NC(=O)[C@@H]1C[C@@H](Oc2nc3cc(OC)ccc3nc2CC)CN1C(=O)[C@@H](NC(=O)OC1CCCC1)C(C)(C)C)C(=O)NS(=O)(=O)C1CC1 [Compound 11a]', 350),
  ('C=C[C@@H]1C[C@]1(NC(=O)[C@@H]1C[C@@H](Oc2nc3cc(OC)ccc3nc2C(F)(F)F)CN1C(=O)[C@@H](NC(=O)OC(C)(C)C)C(C)(C)C)C(=O)NS(=O)(=O)C1CC1 [Compound 9e]', 723),
  ('C=C[C@@H]1C[C@]1(NC(=O)[C@@H]1C[C@@H](Oc2nc3cc(OC)ccc3nc2C(F)(F)F)CN1C(=O)[C@@H](NC(=O)OC(C)(C)C)C(C)(C)C)C(=O)NS(=O)(=O)C1(C)CC1 [Compound 10e]', 513),
  ('C=C[C@@H]1C[C@]1(NC(=O)[C@@H]1C[C@@H](Oc2nc3cc(OC)ccc3nc2C)CN1C(=O)[C@@H](NC(=O)OC(C)(C)C)C(C)(C)C)C(=O)NS(=O)(=O)C1CC1 [Compound 9b]', 290),
  ('C=C[C@@H]1C[C@]1(NC(=O)[C@@H]1C[C@@H](Oc2nc3cc(OC)ccc3nc2CC)CN1C(=O)[C@@H](NC(=O)OC1CCCC1)C(C)(C)C)C(=O)NS(=O)(=O)C1(C)CC1 [Compound 12a]', 145);

Okay, here is my list. What is Ki for each of these?
1. C=C[C@@H]1C[C@]1(NC(=O)[C@@H]1C[C@@H](Oc2nc3cc(OC)ccc3nc2C)CN1C(=O)[C@@H](NC(=O)OC1CCCC1)C(C)(C)C)C(=O)NS(=O)(=O)C1(C)CC1 [Compound 12b]
2. C=C[C@@H]1C[C@]1(NC(=O)[C@@H]1C[C@@H](Oc2nc3cc(OC)ccc3nc2Cl)CN1C(=O)[C@@H](NC(=O)OC(C)(C)C)C(C)(C)C)C(=O)NS(=O)(=O)C1(C)CC1 [Compound 10d]
3. C=C[C@@H]1C[C@]1(NC(=O)[C@@H]1C[C@@H](Oc2nc3cc(OC)ccc3nc2C(C)C)CN1C(=O)[C@@H](NC(=O)OC1CCCC1)C(C)(C)C)C(=O)NS(=O)(=O)C1(C)CC1 [Compound 12c]
4. C=C[C@@H]1C[C@]1(NC(=O)[C@@H]1C[C@@H](Oc2nc3cc(OC)ccc3nc2C(F)(F)F)CN1C(=O)[C@@H](NC(=O)OC1CCCC1)C(C)(C)C)C(=O)NS(=O)(=O)C1CC1 [Compound 11e]
5. C=C[C@@H]1C[C@]1(NC(=O)[C@@H]1C[C@@H](Oc2nc3cc(OC)ccc3nc2Cl)CN1C(=O)[C@@H](NC(=O)OC1CCCC1)C(C)(C)C)C(=O)NS(=O)(=O)C1(C)CC1 [Compound 12d]
6. C=C[C@@H]1C[C@]1(NC(=O)[C@@H]1C[C@@H](Oc2nc3cc(OC)ccc3nc2CC)CN1C(=O)[C@@H](NC(=O)OC(C)(C)C)C(C)(C)C)C(=O)NS(=O)(=O)C1(C)CC1 [Compound 10a]
7. C=C[C@@H]1C[C@]1(NC(=O)[C@@H]1C[C@@H](Oc2nc3cc(OC)ccc3nc2Cl)CN1C(=O)[C@@H](NC(=O)OC1CCCC1)C(C)(C)C)C(=O)NS(=O)(=O)C1CC1 [Compound 11d]
8. C=C[C@@H]1C[C@]1(NC(=O)[C@@H]1C[C@@H](Oc2nc3cc(OC)ccc3nc2C(C)C)CN1C(=O)[C@@H](NC(=O)OC(C)(C)C)C(C)(C)C)C(=O)NS(=O)(=O)C1CC1 [Compound 9c]

[140, 119, 1000, 703, 51, 385, 99, 1090]

Okay, here is my list. What is Ki for each of these?
1. C=C[C@@H]1C[C@]1(NC(=O)[C@@H]1C[C@@H](Oc2nc3cc(OC)ccc3nc2C(C)C)CN1C(=O)[C@@H](NC(=O)OC1CCCC1)C(C)(C)C)C(=O)NS(=O)(=O)C1CC1 [Compound 11c]
2. C=C[C@@H]1C[C@]1(NC(=O)[C@@H]1C[C@@H](Oc2nc3cc(OC)ccc3nc2Cl)CN1C(=O)[C@@H](NC(=O)OC(C)(C)C)C(C)(C)C)C(=O)NS(=O)(=O)C1CC1 [Compound 9d]
3. C=C[C@@H]1C[C@]1(NC(=O)[C@@H]1C[C@@H](Oc2nc3cc(OC)ccc3nc2C)CN1C(=O)[C@@H](NC(=O)OC(C)(C)C)C(C)(C)C)C(=O)NS(=O)(=O)C1(C)CC1 [Compound 10b]
4. C=C[C@@H]1C[C@]1(NC(=O)[C@@H]1C[C@@H](Oc2nc3cc(OC)ccc3nc2C)CN1C(=O)[C@@H](NC(=O)OC1CCCC1)C(C)(C)C)C(=O)NS(=O)(=O)C1CC1 [Compound 11b]
5. C=C[C@@H]1C[C@]1(NC(=O)[C@@H]1C[C@@H](Oc2nc3cc(OC)ccc3nc2C(C)C)CN1C(=O)[C@@H](NC(=O)OC(C)(C)C)C(C)(C)C)C(=O)NS(=O)(=O)C1(C)CC1 [Compound 10c]
6. C=C[C@@H]1C[C@]1(NC(=O)[C@@H]1C[C@@H](Oc2nc3cc(OC)ccc3nc2C(F)(F)F)CN1C(=O)[C@@H](NC(=O)OC1CCCC1)C(C)(C)C)C(=O)NS(=O)(=O)C1(C)CC1 [Compound 12e]
7. C=C[C@@H]1C[C@]1(NC(=O)[C@@H]1C[C@@H](Oc2nc3cc(OC)ccc3nc2CC)CN1C(=O)[C@@H](NC(=O)OC(C)(C)C)C(C)(C)C)C(=O)NS(=O)(=O)C1CC1 [Compound 3]

1. 985
2. 128
3. 265
4. 144
5. 1180
6. 516
7. 642

What Ki appears in the records for this molecule with GT1a D168A NS3/4A protease (UniProt P27958, D1194A, species not given)? CCc1nc2ccc(OC)cc2nc1O[C@@H]1C[C@H]2C(=O)N[C@]3(C(=O)NS(=O)(=O)C4CC4)C[C@H]3/C=C\CCCCC[C@H](NC(=O)OC(C)(C)C)C(=O)N2C1 [Compound 2]
91

====

target-of-assay: wild-type GT1a NS3/4A protease (UniProt P27958, C1185S, species not given)
Construct: Ki (nM) GT1a WT NS3/4A Protease
Format: biochemical, Hepatitis C virus
settings: read-out: Ki (nM) GT1a WT NS3/4A Protease; Table 3
Please go through the items and note down their Ki.
Give bare numbers, in nM.

A selection of reference data follows.
INSERT INTO measurements (molecule, reported_measurement) VALUES
  ('COc1ccc2nc(Cl)c(O[C@@H]3C[C@H]4C(=O)N[C@]5(C(=O)NS(=O)(=O)C6CC6)C[C@H]5/C=C\CCCCC[C@H](NC(=O)OC5CCCC5)C(=O)N4C3)nc2c1 [Compound 22c]', 0.49),
  ('CCc1nc2ccccc2nc1O[C@@H]1C[C@H]2C(=O)N[C@]3(C(=O)NS(=O)(=O)C4CC4)C[C@H]3/C=C\CCCCC[C@H](NC(=O)OC(C)(C)C)C(=O)N2C1 [Compound 18g]', 7.18),
  ('COc1ccc2nc(C(F)(F)F)c(O[C@@H]3C[C@H]4C(=O)N[C@]5(C(=O)NS(=O)(=O)C6CC6)C[C@H]5/C=C\CCCCC[C@H](NC(=O)OC5CCCC5)C(=O)N4C3)nc2c1 [Compound 22d]', 7.55);

Okay, here is my list. What is Ki for each of these?
1. COc1ccc2nc(C(F)(F)F)c(O[C@@H]3C[C@H]4C(=O)N[C@]5(C(=O)NS(=O)(=O)C6(C)CC6)C[C@H]5/C=C\CCCCC[C@H](NC(=O)OC5CCCC5)C(=O)N4C3)nc2c1 [Compound 23d]
2. COc1ccc2nc(C(C)C)c(O[C@@H]3C[C@H]4C(=O)N[C@]5(C(=O)NS(=O)(=O)C6(C)CC6)C[C@H]5/C=C\CCCCC[C@H](NC(=O)OC5CCCC5)C(=O)N4C3)nc2c1 [Compound 23e]
3. COc1ccc2nc(Cl)c(O[C@@H]3C[C@H]4C(=O)N[C@]5(C(=O)NS(=O)(=O)C6CC6)C[C@H]5/C=C\CCCCC[C@H](NC(=O)OC(C)(C)C)C(=O)N4C3)nc2c1 [Compound 18c]

8.14
1.34
1.07
